valueType: melting point

Cc1ccc(C)c(CN2C(=O)c3ccccc3C2=O)c1 : 148 to 150 °C
CCCCCCCCCCc1sc(NC(=O)Nc2c(C(C)C)cccc2C(C)C)nc1C : 101 to 108 °C
NS(=O)(=O)c1cccc(-c2cccc(-c3nc(-c4ccc(F)c(F)c4)cc(C(F)(F)F)n3)c2)c1 : 211 °C
Cc1ccc(S(=O)(=O)n2cc([C@@H]3C[C@H]3C=O)c3cc(C#N)ccc32)cc1 (relative stereo) : 165 to 167 °C
O=C(Cn1nc(Br)nc1Br)N1CCC(c2nc(C3=NOC(c4c(F)cccc4F)C3)cs2)CC1 (stereo not drawn) : 185 to 189 °C

Reported melting point of CCS(=O)(=O)c1ccc2cc(C(C)=O)ccc2c1 : 133 °C

Entry COc1cc(COc2nn(-c3ccccc3)cc2/C=C/c2cnco2)ccc1OCc1nc(-c2ccco2)oc1C ; melting point = 137 to 138 °C

Just so you know, measured melting point for CC(=O)N1c2ccccc2-c2c([N+](=O)[O-])cnn2C1c1ccc(Cl)cc1 (stereo not drawn) came out at 183 to 184 °C

Form field melting point, entry CCCCCCCCOc1cccc2c1OCO2 : 120 °C

Kindly note the recorded melting point for CCOc1cccc2cc(S(=O)(=O)Nc3ccc(OC)cc3)c(=O)oc12 , which is 196 to 198 °C

What the record says about O=c1oc(=O)n(-c2ccc(F)cc2)c2ccccc12 : melting point is 199 to 201 °C

get_value(item= O=S1(=O)c2ccc(O)cc2Oc2cc(F)ccc21 , readout=melting point) returns 258 to 260 °C

Lookup result for CCn1c(=O)c(-c2cccs2)cc2cnc(Nc3ccccc3)nc21 ; measured melting point: 223 to 225 °C
